molecular target: HCV NS5B polymerase (His-tagged, C-terminal 21 amino acid deleted NS5B, HC-J4) (Hepatitis C virus genotype 1b); construct: The cDNA encoding NS5B amino acid 1-570 (HC-J4, genotype 1b); His tag (His6, from pET-21b) (C); made in house; host or cells: E. coli BL21 (DE3); test: NS5b polymerase assay (biochemical RdRp assay, 3H-GTP incorporation, SPA beads); set-up: species or system HCV genotype 1b; details: NS5B Polymerase Assay IC50 (μM)
Sequence (O92972 2417-3000, looked up, stated change not applied): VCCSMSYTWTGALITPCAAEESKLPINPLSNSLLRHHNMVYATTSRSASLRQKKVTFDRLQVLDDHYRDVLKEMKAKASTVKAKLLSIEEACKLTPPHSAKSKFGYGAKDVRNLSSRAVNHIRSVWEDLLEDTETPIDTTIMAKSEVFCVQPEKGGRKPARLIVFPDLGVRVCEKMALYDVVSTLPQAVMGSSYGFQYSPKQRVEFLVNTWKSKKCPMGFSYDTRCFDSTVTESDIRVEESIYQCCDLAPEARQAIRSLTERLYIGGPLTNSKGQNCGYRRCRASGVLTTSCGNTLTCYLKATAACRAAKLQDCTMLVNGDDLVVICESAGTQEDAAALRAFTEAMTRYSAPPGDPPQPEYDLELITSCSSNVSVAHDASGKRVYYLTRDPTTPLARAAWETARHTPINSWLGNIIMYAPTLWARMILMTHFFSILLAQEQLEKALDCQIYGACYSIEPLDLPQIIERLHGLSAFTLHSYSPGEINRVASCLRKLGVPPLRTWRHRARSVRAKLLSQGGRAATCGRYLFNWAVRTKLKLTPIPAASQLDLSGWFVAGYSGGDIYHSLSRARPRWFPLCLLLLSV
metric.name: IC50

Reference set (5 entries):
molecule="CCOc1cccc(C2Nc3ccccc3NC3=C2C(=O)CC(c2ccc(Cl)cc2)C3)c1 (stereo not drawn) [compound 379]" value="> 42.7 µM"
molecule="COc1ccc([C@@H]2CC(=O)C3=C(C2)Nc2ccccc2N[C@H]3c2coc3ccccc3c2=O)cc1OC [compound 495]" value="> 42.7 µM"
molecule="O=C1C[C@@H](c2ccccc2)CC2=C1[C@H](c1coc3ccccc3c1=O)Nc1ccccc1N2 [compound 488]" value="> 42.7 µM"
molecule="COc1ccc(OC)c(C2Nc3ccccc3NC3=C2C(=O)CC(c2ccccc2)C3)c1 (stereo not drawn) [compound 351]" value="> 42.7 µM"
molecule="O=C1CC(c2ccc(Cl)cc2)CC2=C1C(c1cccc([N+](=O)[O-])c1)Nc1ccccc1N2 (stereo not drawn) [compound 337]" value="> 42.7 µM"

Enquiry: Which IC50 reading was recorded for the molecule COc1ccc([C@@H]2CC(=O)C3=C(C2)Nc2ccccc2N[C@H]3c2cc3c(cc2[N+](=O)[O-])OCO3)cc1OC [compound 487] ?
Return: > 42.7 µM

Enquiry: Which IC50 reading was recorded for the molecule CC1(C)CC(=O)C2=C(C1)Nc1cc(C(=O)c3ccccc3)ccc1NC2c1ccccc1Cl (stereo not drawn) [compound 463] ?
Return: > 33.3 µM

Enquiry: Which IC50 reading was recorded for the molecule Cc1ccc(C2CC(=O)C3=C(C2)Nc2ccccc2NC3c2ccccc2F)cc1 (stereo not drawn) [compound 412] ?
Return: > 33.3 µM

Enquiry: Which IC50 reading was recorded for the molecule O=C1C[C@@H](c2ccc(Cl)cc2)CC2=C1[C@H](c1c[nH]c3ccccc13)Nc1ccccc1N2 [compound 482] ?
Return: > 42.7 µM

Enquiry: Which IC50 reading was recorded for the molecule COc1ccc(C2Nc3ccc(C(=O)c4ccccc4)cc3NC3=C2C(=O)CC(C)(C)C3)cc1OC (stereo not drawn) [compound 453] ?
Return: > 42.7 µM

Enquiry: Which IC50 reading was recorded for the molecule CCN(CC)c1ccc(C2CC(=O)C3=C(C2)Nc2ccccc2NC3c2ccccc2)cc1 (stereo not drawn) [compound 376] ?
Return: > 42.7 µM

Enquiry: Which IC50 reading was recorded for the molecule CCn1c2ccccc2c2cc([C@@H]3Nc4ccccc4NC4=C3C(=O)C[C@@H](c3ccc(Cl)cc3)C4)ccc21 [compound 480] ?
Return: > 42.7 µM

Enquiry: Which IC50 reading was recorded for the molecule COc1ccc(C2CC(=O)C3=C(C2)Nc2ccccc2NC3c2ccc(C(F)(F)F)cc2)cc1 (stereo not drawn) [compound 329] ?
Return: > 33.3 µM

Enquiry: Which IC50 reading was recorded for the molecule CC1(C)CC(=O)C2=C(C1)Nc1ccccc1NC2c1ccc(F)cc1F (stereo not drawn) [compound 441] ?
Return: > 133 µM

Enquiry: Which IC50 reading was recorded for the molecule CSc1ccc(C2Nc3ccccc3NC3=C2C(=O)CC(c2ccccc2)C3)cc1 (stereo not drawn) [compound 362] ?
Return: 30.6 µM

Enquiry: Which IC50 reading was recorded for the molecule COc1ccc(C2CC(=O)C3=C(C2)Nc2ccccc2NC3c2cccc(OCc3ccccc3)c2)cc1 (stereo not drawn) [compound 326] ?
Return: > 33.3 µM

Enquiry: Which IC50 reading was recorded for the molecule CC1(C)CC(=O)C2=C(C1)Nc1ccccc1NC2c1ccc([N+](=O)[O-])cc1 (stereo not drawn) [compound 448] ?
Return: > 133 µM

Enquiry: Which IC50 reading was recorded for the molecule CC1(C)CC(=O)C2=C(C1)Nc1ccccc1NC2c1cc(Cl)c(OCc2ccccc2)c(Cl)c1 (stereo not drawn) [compound 444] ?
Return: 33.2 µM

Enquiry: Which IC50 reading was recorded for the molecule Cc1cccc2c1NC1=C(C(=O)CC(C)(C)C1)C(c1ccc(Cl)cc1Cl)N2 (stereo not drawn) [compound 471] ?
Return: > 133 µM

Enquiry: Which IC50 reading was recorded for the molecule COc1ccc(C2CC(=O)C3=C(C2)Nc2ccccc2NC3c2ccc(Cl)c([N+](=O)[O-])c2)cc1 (stereo not drawn) [compound 389] ?
Return: > 42.7 µM

Enquiry: Which IC50 reading was recorded for the molecule Cc1ccc(C2CC(=O)C3=C(C2)Nc2ccccc2NC3c2ccccc2)cc1 (stereo not drawn) [compound 414] ?
Return: > 33.3 µM

Enquiry: Which IC50 reading was recorded for the molecule CC1(C)CC(=O)C2=C(C1)Nc1ccccc1NC2c1ccccc1OCc1ccccc1 (stereo not drawn) [compound 425] ?
Return: > 42.7 µM

Enquiry: Which IC50 reading was recorded for the molecule CCOc1cccc(C2Nc3ccccc3NC3=C2C(=O)CC(c2ccccc2)C3)c1 (stereo not drawn) [compound 410] ?
Return: > 33.3 µM

Enquiry: Which IC50 reading was recorded for the molecule CC1(C)CC(=O)C2=C(C1)Nc1ccccc1NC2/C(Cl)=C/c1ccccc1 (racemic) [compound 506] ?
Return: > 42.7 µM

* * *

metric.name: melting point

Reference set (2 entries):
compound="CC(=O)N1c2cccc(C)c2NC2=C(C(=O)CC(C)(C)C2)C1c1ccc(Cl)cc1Cl (stereo not drawn) [compound 315]" metric_name="melting point" value="> 260 °C"
compound="Cc1cccc2c1NC(c1ccc(Cl)cc1Cl)C1=C(CC(C)(C)CC1=O)N2 (stereo not drawn) [compound 469]" metric_name="melting point" value="235 °C"

Enquiry: Which melting point reading was recorded for the compound CCCN(C)Cc1cccc2c1N(C(C)=O)C(c1ccc(Cl)cc1Cl)C1=C(CC(C)(C)CC1=O)N2 (stereo not drawn) ?
Return: > 260 °C

Enquiry: Which melting point reading was recorded for the compound CNCc1ccc2c(c1)NC1=C(C(=O)CC(C)(C)C1)C(c1ccc(Cl)cc1Cl)N2C(C)=O (stereo not drawn) ?
Return: > 260 °C

* * *

# IC50 annotations
molecular target: HCV NS5B polymerase (His-tagged, C-terminal 21 amino acid deleted NS5B, HC-J4) (Hepatitis C virus genotype 1b); construct: The cDNA encoding NS5B amino acid 1-570 (HC-J4, genotype 1b); His tag (His6, from pET-21b) (C); made in house; host or cells: E. coli BL21 (DE3); assay: NS5b polymerase assay (biochemical RdRp assay, 3H-GTP incorporation, SPA beads); design: species or system HCV genotype 1b; settings: NS5B Polymerase Assay IC50 (μM)

compound="Cc1ccc(C2CC(=O)C3=C(C2)Nc2ccccc2NC3c2ccccc2Cl)cc1 (stereo not shown)" value="> 33.3 µM"
compound="COc1ccc(C2CC(=O)C3=C(C2)Nc2ccccc2NC3c2cccc(OC)c2OC)cc1OC (stereo not shown)" value="> 42.7 µM"
compound="O=C1CC(c2ccc(Cl)cc2)CC2=C1C(c1cccc(Cl)c1Cl)Nc1ccccc1N2 (stereo not shown)" value="> 42.7 µM"

// moving on: another record for IC50
Enquiry: Which IC50 reading was recorded for the compound COc1cccc(C2Nc3ccccc3NC3=C2C(=O)CC(c2ccc(Cl)cc2)C3)c1 (stereo not shown) ?
Return: > 42.7 µM

* * *

biological target: HCV NS5B polymerase (His-tagged, C-terminal 21 amino acid deleted NS5B, HC-J4) (Hepatitis C virus genotype 1b); construct: The cDNA encoding NS5B amino acid 1-570 (HC-J4, genotype 1b); His tag (His6, from pET-21b) (C); made in house; host or cells: E. coli BL21 (DE3); assay: NS5b polymerase assay (biochemical RdRp assay, 3H-GTP incorporation, SPA beads); design: species or system HCV genotype 1b; settings: NS5B Polymerase Assay IC50, 200 nM enzyme, 3H-GTP incorporation, 2 h at 25° C.
metric.name: IC50

Reference set (6 entries):
compound="CC(C)C(=O)N1c2ccccc2NC2=C(C(=O)CC(C)(C)C2)C1c1ccc([N+](=O)[O-])s1 (centres unmarked)" value="> 42.7 µM"
compound="CCCCC(=O)N1c2ccccc2NC2=C(C(=O)CC(C)(C)C2)C1c1ccc(Cl)cc1 (centres unmarked)" value="> 42.7 µM"
compound="CC(=O)N1c2ccccc2NC2=C(C(=O)CC(C)(C)C2)C1c1ccccc1OCc1ccccc1 (centres unmarked) [compound 19]" value="> 42.7 µM"
compound="CC(=O)N1c2ccccc2NC2=C(C(=O)CC(C)(C)C2)C1c1ccc(-c2cccc([N+](=O)[O-])c2)o1 (centres unmarked)" value="> 42.6 µM"
compound="CC1(C)CC(=O)C2=C(C1)Nc1ccccc1N(C(=O)Cc1ccc(F)cc1)C2c1cccs1 (centres unmarked)" value="> 42.6 µM"
compound="CC(=O)N1c2ccccc2NC2=C(C(=O)CC(C)(C)C2)C1c1ccccc1OCc1ccccc1 (centres unmarked) [compound 44]" value="> 42.7 µM"

Enquiry: Which IC50 reading was recorded for the compound CC(=O)N1c2ccccc2NC2=C(C(=O)CC(C)(C)C2)C1c1ccc(N(C)C)cc1 (centres unmarked) ?
Return: > 42.7 µM

Enquiry: Which IC50 reading was recorded for the compound CC1(C)CC(=O)C2=C(C1)Nc1ccccc1N(C(=O)C(F)(F)F)C2c1ccc(-c2ccc([N+](=O)[O-])cc2)o1 (centres unmarked) ?
Return: > 42.7 µM

Enquiry: Which IC50 reading was recorded for the compound CC1(C)CC(=O)C2=C(C1)Nc1ccccc1N(C(=O)C(F)(F)F)C2c1cccs1 (centres unmarked) ?
Return: > 42.7 µM

Enquiry: Which IC50 reading was recorded for the compound CC(=O)N1c2cccc(C#N)c2NC2=C(C(=O)CC(C)(C)C2)C1c1ccc(Cl)cc1Cl (centres unmarked) ?
Return: 6.97 µM

Enquiry: Which IC50 reading was recorded for the compound COc1ccc(C2C3=C(CC(C)(C)CC3=O)Nc3ccccc3N2C(C)=O)c(OC)c1 (centres unmarked) ?
Return: > 42.7 µM

Enquiry: Which IC50 reading was recorded for the compound COc1c(Cl)cc(Cl)cc1C1C2=C(CC(C)(C)CC2=O)Nc2ccccc2N1C(C)=O (centres unmarked) ?
Return: > 42.7 µM

Enquiry: Which IC50 reading was recorded for the compound CCC(C)Oc1ccccc1C1C2=C(CC(c3ccc(OC)c(OC)c3)CC2=O)Nc2ccccc2N1C(=O)c1ccccc1 (centres unmarked) ?
Return: > 42.7 µM

Enquiry: Which IC50 reading was recorded for the compound CCN(CC)c1ccc(C2C3=C(CC(C)(C)CC3=O)Nc3ccccc3N2C(C)=O)cc1 (centres unmarked) ?
Return: > 42.7 µM

Enquiry: Which IC50 reading was recorded for the compound CC(C)C(=O)N1c2ccccc2NC2=C(C(=O)CC(C)(C)C2)C1c1ccc(Br)s1 (centres unmarked) ?
Return: > 42.7 µM

Enquiry: Which IC50 reading was recorded for the compound CC(=O)N1c2ccccc2NC2=C(C(=O)CC(C)(C)C2)C1c1ccc(Oc2ccccc2Br)cc1 (centres unmarked) ?
Return: 1.97 µM

Enquiry: Which IC50 reading was recorded for the compound CC(=O)N1c2ccccc2NC2=C(C(=O)CC(C)(C)C2)C1c1cc(Cl)ccc1Cl (centres unmarked) ?
Return: > 133 µM

Enquiry: Which IC50 reading was recorded for the compound CC(=O)N1c2ccccc2NC2=C(C(=O)CC(C)(C)C2)C1c1ccc(OCc2cccnc2)cc1 (centres unmarked) ?
Return: 19.1 µM

Enquiry: Which IC50 reading was recorded for the compound CCOc1ccc(C2C3=C(CC(C)(C)CC3=O)Nc3ccccc3N2C(C)=O)cc1 (centres unmarked) ?
Return: > 42.7 µM

Enquiry: Which IC50 reading was recorded for the compound CC(=O)N1c2ccccc2NC2=C(C(=O)CC(C)(C)C2)C1c1ccc(O)cc1 (centres unmarked) ?
Return: > 133 µM

Reference for the values: patent US20090221559A1
